# IC50 annotations
Molecular target: recombinant human PARP (PARP1) (Homo sapiens)
Construct: Full length human PARP (PARP1) is assembled from PCR fragments; His6 tag with TEV site, from the pFastBac-HTb vector (own knowledge of the vector); made in house; host or cells: insect cells, baculovirus (Bac-to-Bac, Gibco-BRL)
Sequence (P09874 whole entry, the tested form may be a part): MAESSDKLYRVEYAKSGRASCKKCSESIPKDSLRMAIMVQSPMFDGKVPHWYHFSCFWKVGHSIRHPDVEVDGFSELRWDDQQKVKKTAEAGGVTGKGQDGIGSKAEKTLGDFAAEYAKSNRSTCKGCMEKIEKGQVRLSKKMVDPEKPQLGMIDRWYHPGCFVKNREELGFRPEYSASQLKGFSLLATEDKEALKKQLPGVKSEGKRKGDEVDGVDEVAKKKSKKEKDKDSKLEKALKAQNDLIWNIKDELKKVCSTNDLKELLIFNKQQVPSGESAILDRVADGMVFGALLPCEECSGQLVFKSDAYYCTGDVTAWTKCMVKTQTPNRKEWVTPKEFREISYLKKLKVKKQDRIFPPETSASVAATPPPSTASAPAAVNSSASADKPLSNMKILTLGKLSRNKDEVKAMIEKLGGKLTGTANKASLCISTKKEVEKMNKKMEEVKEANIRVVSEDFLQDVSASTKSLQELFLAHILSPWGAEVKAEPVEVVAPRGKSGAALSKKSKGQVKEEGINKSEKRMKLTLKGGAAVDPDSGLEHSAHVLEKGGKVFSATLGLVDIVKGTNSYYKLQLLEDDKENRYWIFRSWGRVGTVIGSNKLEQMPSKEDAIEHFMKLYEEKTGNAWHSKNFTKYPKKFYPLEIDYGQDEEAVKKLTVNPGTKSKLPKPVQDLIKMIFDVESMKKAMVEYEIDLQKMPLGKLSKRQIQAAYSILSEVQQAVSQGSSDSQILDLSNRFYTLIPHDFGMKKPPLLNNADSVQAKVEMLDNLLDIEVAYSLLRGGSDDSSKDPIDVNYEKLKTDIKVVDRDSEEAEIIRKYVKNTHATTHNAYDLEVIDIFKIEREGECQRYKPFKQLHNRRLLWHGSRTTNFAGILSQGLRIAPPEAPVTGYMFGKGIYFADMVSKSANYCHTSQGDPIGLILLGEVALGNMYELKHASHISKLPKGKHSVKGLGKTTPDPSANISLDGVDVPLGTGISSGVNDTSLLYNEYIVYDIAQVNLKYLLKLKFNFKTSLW
Test: PARP enzyme assay, Method A (radioactivity or 'ELISA' enzyme assay with partially purified enzyme)
Format: biochemical
Details: recombinant human PARP preparation, radioactive or ELISA enzyme assay
Where a name gives a salt, the structure may show the parent alone.
Your answer is read as µM, so omit the unit and give the number.

Below, each entry is followed by its recorded IC50 result.
[
  {
    "compound": "CCc1cc(-c2ccc(S(=O)(=O)NC3CCN(CC4CCCCC4)CC3)s2)c(C)[nH]c1=O [Example 75, hydrochloride]",
    "data_value": 0.3
  },
  {
    "compound": "CCc1cc(-c2ccc(S(=O)(=O)NC3CCN(Cc4ncc[nH]4)CC3)s2)c(C)[nH]c1=O [Example 83, dihydrochloride]",
    "data_value": 2.8
  },
  {
    "compound": "CCc1cc(-c2ccc(S(=O)(=O)N3CCC(N4CCCC4)CC3)s2)c(C)[nH]c1=O [Example 66, hydrochloride]",
    "data_value": 0.67
  },
  {
    "compound": "CCc1cc(-c2ccc(S(=O)(=O)NCC3CCCN3CC)s2)c(C)[nH]c1=O (stereo not drawn) [Example 102, hydrochloride]",
    "data_value": 0.49
  },
  {
    "compound": "CCc1cc(-c2ccc(S(=O)(=O)NCc3cccnc3)o2)c(C)[nH]c1=O [Example 55, hydrochloride]",
    "data_value": 0.22
  },
  {
    "compound": "CCc1cc(-c2ccc(S(=O)(=O)N(C)C3CCN(C)CC3)s2)c(C)[nH]c1=O [Example 77, hydrochloride]",
    "data_value": 0.28
  }
]

Supply measured IC50 of CCc1cc(-c2noc(C)n2)c(C)[nH]c1=O [Example 22] in your reply.
0.31

Supply measured IC50 of CCc1cc(-c2ccc(CNC(C)CCc3ccccc3)s2)c(C)[nH]c1=O (stereo not drawn) [Example 136, hydrochloride] in your reply.
0.46

Supply measured IC50 of CCc1cc(-c2ccc(CNCc3cccc(C(F)(F)F)c3F)s2)c(C)[nH]c1=O [Example 178, hydrochloride] in your reply.
0.4

Supply measured IC50 of CCc1cc(-c2ccc(S(=O)(=O)NCCCN(C)C)s2)c(C)[nH]c1=O [Example 34, hydrochloride] in your reply.
4.5

Supply measured IC50 of CCc1cc(-c2ccc(CN3CCC[C@H]3COC)s2)c(C)[nH]c1=O [Example 191, hydrochloride] in your reply.
0.8

Supply measured IC50 of CCc1cc(-c2ccc(S(=O)(=O)N3CCN(C)CC3)s2)c(C)[nH]c1=O [Example 92] in your reply.
1.3

Supply measured IC50 of CCc1cc(-c2ccc(S(=O)(=O)NCCOc3ccccc3)s2)c(C)[nH]c1=O [Example 98] in your reply.
0.41

Supply measured IC50 of CCc1cc(-c2ccc(S(=O)(=O)NCCNC(C)=O)s2)c(C)[nH]c1=O [Example 119] in your reply.
0.38

Supply measured IC50 of CCc1cc(-c2ccc(S(=O)(=O)N3CCN(Cc4ccncc4)CC3)s2)c(C)[nH]c1=O [Example 58, dihydrochloride] in your reply.
2.3
